# assayDetails: single-agent antifungal activity, Candida albicans – CaCi-2 strain, Alamar Blue, dry powder, set 7, counter-screen for antifungal drug resistance project, dose response (AID 493134)
# protocolConditions: C. albicans CaCi-2 (fluconazole-resistant clinical isolate) growth, Alamar Blue fluorescence, 48 h; at 26 µM (top of the series)
Recorded activity change, negative = inhibition for the following compounds
quantity: activity change, negative = inhibition (%)

{"smilesData": "COC(=O)Cn1nc(-c2cccc(OC)c2)c2ccccc21", "quantity": "activity change, negative = inhibition", "resultUnits": "%", "endpointResult": -0.691}
{"smilesData": "CN(C)C(=O)Cn1nc(-c2ccccc2)c2ccccc21", "quantity": "activity change, negative = inhibition", "resultUnits": "%", "endpointResult": -25}
{"smilesData": "COC(=O)Cn1nc(-c2ccccc2)c2ccc(OC)cc21", "quantity": "activity change, negative = inhibition", "resultUnits": "%", "endpointResult": -26.5}
{"smilesData": "COC(=O)Cn1nc(-c2ccccc2)c2ccc(C)cc21", "quantity": "activity change, negative = inhibition", "resultUnits": "%", "endpointResult": 0.047}
{"smilesData": "COC(=O)Cn1nc(-c2ccccc2OC)c2ccccc21", "quantity": "activity change, negative = inhibition", "resultUnits": "%", "endpointResult": -23.3}
{"smilesData": "COC(=O)Cn1nc(-c2ccccc2C)c2ccccc21", "quantity": "activity change, negative = inhibition", "resultUnits": "%", "endpointResult": -21.2}
{"smilesData": "O=C(Cn1nc(-c2ccccc2)c2ccccc21)Oc1ccccc1", "quantity": "activity change, negative = inhibition", "resultUnits": "%", "endpointResult": 6.4}
{"smilesData": "CC(C)OC(=O)Cn1nc(-c2ccccc2)c2ccccc21", "quantity": "activity change, negative = inhibition", "resultUnits": "%", "endpointResult": -0.006}
{"smilesData": "COC(=O)Cn1nc(-c2cccc(C)c2)c2ccccc21", "quantity": "activity change, negative = inhibition", "resultUnits": "%", "endpointResult": 7.2}
{"smilesData": "COC(=O)Cn1nc(-c2cccc(F)c2)c2ccccc21", "quantity": "activity change, negative = inhibition", "resultUnits": "%", "endpointResult": 16}
{"smilesData": "CCOC(=O)Cn1nc(-c2ccccc2)c2ccccc21", "quantity": "activity change, negative = inhibition", "resultUnits": "%", "endpointResult": -5.31}
{"smilesData": "COC(=O)Cn1nc(-c2ccccc2)c2ccccc21", "quantity": "activity change, negative = inhibition", "resultUnits": "%", "endpointResult": -5.47}
{"smilesData": "COC(=O)Cn1nc(-c2ccccc2)c2ccc(F)cc21", "quantity": "activity change, negative = inhibition", "resultUnits": "%", "endpointResult": 5.28}
{"smilesData": "N#CCn1nc(-c2ccccc2)c2ccccc21", "quantity": "activity change, negative = inhibition", "resultUnits": "%", "endpointResult": 11}
{"smilesData": "COC(=O)Cn1nc(-c2ccccc2)c2cc(C)ccc21", "quantity": "activity change, negative = inhibition", "resultUnits": "%", "endpointResult": 2.54}
{"smilesData": "COC(=O)Cn1nc(-c2ccccc2)c2cc(F)ccc21", "quantity": "activity change, negative = inhibition", "resultUnits": "%", "endpointResult": -6.49}
{"smilesData": "COCCn1nc(-c2ccccc2)c2ccccc21", "quantity": "activity change, negative = inhibition", "resultUnits": "%", "endpointResult": -0.717}
{"smilesData": "CC(C)(C)OC(=O)Cn1nc(-c2ccccc2)c2ccccc21", "quantity": "activity change, negative = inhibition", "resultUnits": "%", "endpointResult": -0.465}
{"smilesData": "c1ccc(-c2nn(Cc3nn[nH]n3)c3ccccc23)cc1", "quantity": "activity change, negative = inhibition", "resultUnits": "%", "endpointResult": 9.64}
{"smilesData": "COC(=O)Cn1nc(-c2ccccc2)c2ccc(C#N)cc21", "quantity": "activity change, negative = inhibition", "resultUnits": "%", "endpointResult": 21.8}
{"smilesData": "COC(=O)Cn1nc(-c2ccc(C(F)(F)F)cc2)c2ccccc21", "quantity": "activity change, negative = inhibition", "resultUnits": "%", "endpointResult": 4.42}
